Molecular target: SARS-CoV-2 Receptor Binding Domain (RBD) protein (SARS-CoV-2)
Experiment: SPR (Carterra LSA), scFv captured via anti-V5, RBD as analyte, 1:1 fit
measured.attribute: kon (M⁻¹ s⁻¹)

1. COVID19_P24_C10 (scFv, V domains shown) VH: QVQLVQSGAEVKKPGASVKVSCKASGYTFTENEMHWVRQAPGQGLEWMGIINPSGGSTSYAQKFQGRVTMTRDTSTSTVYMELSSLRSEDTAVYYCARDSGVDTATLRYYYYGMDVWGQGTTVTVSS VL: DIQMTQSPSSLSASVGDRVTITCQASQDISKYLNWYQQKPGKAPKLLIYGASTLSDGVPSRFSGSGSGTDFTLTISSLQPEDFATYYCQQGYSTPYSFGQGTKLEIKR
553000
2. COVID19_P11_D12 (scFv, V domains shown) VH: QVQLVQSGAEVKKPGASVKVSCKASGYTFTENEMHWVRQAPGQGLEWMGIINPSGGSTSYAQKFQGRVTMTRDTSTSTVYMELSSLRSEDTAVYYCAKTRYGGNSRSRYYYYGMDVWGQGTTVTVSS VL: DIQMTQSPSSLSASVGDRVTITCRASQHISSYLNWYQQKPGKAPKLLIYAASALQSGVPSRFSGSGSGTDFTLTISSLQPEDFATYYCQQGYGTPYTFGQGTKVEIKR
79000
3. COVID19_P24_D09 (scFv, V domains shown) VH: QVQLVQSGAEVKKPGASVKVSCKASGGTFSSYAISWVRQAPGQGLEWMGIVNPSSGSTTYAQKFQGRVTMTRDTSTSTVYMELSSLRSEDTAVYYCARVRGSAAIAMMDVWGQGTTVTVSS VL: DIQMTQSPSSLSASVGDRVTITCRASQDIRNELGWYQQKPGKAPKLLIYAASSLQSGVPSRFSGSGSGTDFTLTISSLQPEDFATYYCQQSYSTPPWTFGQGTKLEIKR
114000
4. COVID19_P11_H02 (scFv, V domains shown) VH: QVQLVQSGAEVKKPGASVKVSCKASGGTFTSYHMHWVRQAPGQGLEWMGWMNPNSGNTGYALKFQGRVTMTRDTSTSTVYMELSSLRSEDTAVYYCASFERFGELVPETFDYWGQGTLVTVSS VL: DIQMTQSPSSLSASVGDRVTITCRASQGIRNDLAWYQQKPGKAPKLLIYAASSLQSGVPSRFSGSGSGTDFTLTISSLQPEDFATYYCQQSYSTPPTFGQGTKLEIKR
320000
5. COVID19_P24_A09 (scFv, V domains shown) VH: QVQLVQSGAEVKKPGASVKVSCKASGYTFTDYYMQWVRQAPGQGLEWMGWIDPHSGATNYAHSFQGRVTMTRDTSTSTVYMELSSLRSEDTAVYYCARLEGGSYWTGYFDLWGRGTLVTVSS VL: EIVMTQSPATLSVSPGERATLSCRASQSVSSNYLAWYQQKPGQAPRLLIYAVSSRATGIPARFSGSGSGTEFTLTISSLQSEDFAVYYCQQYGSSPLTFGGGTKVEIKR
152000

All values here come from patent US11021532.
